Sourced from ChEMBL document CHEMBL5506035

# pKd annotations
- target: N-acetylated-alpha-linked acidic dipeptidase 2 (Homo sapiens, UniProt Q9Y3Q0)
- Sequence (Q9Y3Q0 whole entry): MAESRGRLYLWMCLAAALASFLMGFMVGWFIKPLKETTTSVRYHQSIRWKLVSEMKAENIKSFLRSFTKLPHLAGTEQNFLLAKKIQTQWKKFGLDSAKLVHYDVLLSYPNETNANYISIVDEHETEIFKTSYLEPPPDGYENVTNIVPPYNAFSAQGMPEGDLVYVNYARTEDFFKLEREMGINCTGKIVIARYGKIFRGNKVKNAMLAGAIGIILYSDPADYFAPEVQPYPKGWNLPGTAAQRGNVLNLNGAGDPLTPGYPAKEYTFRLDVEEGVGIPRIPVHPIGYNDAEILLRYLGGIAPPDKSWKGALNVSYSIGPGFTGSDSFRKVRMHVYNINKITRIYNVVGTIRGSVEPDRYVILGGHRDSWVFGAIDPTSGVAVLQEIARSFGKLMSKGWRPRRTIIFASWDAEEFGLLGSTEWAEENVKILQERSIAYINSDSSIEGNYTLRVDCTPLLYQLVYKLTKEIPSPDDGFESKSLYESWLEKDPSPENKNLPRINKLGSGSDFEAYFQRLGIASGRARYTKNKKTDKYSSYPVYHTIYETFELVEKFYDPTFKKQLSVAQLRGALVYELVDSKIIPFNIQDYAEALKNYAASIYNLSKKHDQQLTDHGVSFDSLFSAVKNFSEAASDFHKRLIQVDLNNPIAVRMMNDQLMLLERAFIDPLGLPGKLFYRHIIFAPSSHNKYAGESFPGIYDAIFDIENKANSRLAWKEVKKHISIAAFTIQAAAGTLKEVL
- procedure_text: Displacement of [177Lu]LU-PSMA-617 from human recombinant GCPIII assessed as dissociation constant by fluorescence polarization assay
pKd: −log10 of the molar value.

>  <structure_as_smiles>
O=C(NCCCC[C@H](NC(=O)[C@@H]1C[C@@H](NC(=O)c2c[nH]nn2)CN1C(=O)c1c[nH]nn1)C(=O)O)c1c[nH]nn1

>  <pKd>
7.92

$$$$
>  <structure_as_smiles>
O=C(N[C@@H]1C[C@@H](C(=O)O)N(C(=O)c2cnoc2C2CC2)C1)c1c[nH]nn1

>  <pKd>
6.52

$$$$
>  <structure_as_smiles>
NC[C@H](NC(=O)[C@@H]1C[C@@H](NC(=O)c2c[nH]nn2)CN1C(=O)c1c[nH]nn1)C(=O)O

>  <pKd>
5.00

$$$$
>  <structure_as_smiles>
CC(=O)NCCCC[C@H](NC(=O)[C@@H]1C[C@@H](NC(=O)c2c[nH]nn2)CN1C(=O)c1c[nH]nn1)C(=O)O

>  <pKd>
5.19

$$$$
